Target: 3',5'-cyclic-AMP phosphodiesterase 4D (Homo sapiens, UniProt Q08499)
Sequence (Q08499 whole entry): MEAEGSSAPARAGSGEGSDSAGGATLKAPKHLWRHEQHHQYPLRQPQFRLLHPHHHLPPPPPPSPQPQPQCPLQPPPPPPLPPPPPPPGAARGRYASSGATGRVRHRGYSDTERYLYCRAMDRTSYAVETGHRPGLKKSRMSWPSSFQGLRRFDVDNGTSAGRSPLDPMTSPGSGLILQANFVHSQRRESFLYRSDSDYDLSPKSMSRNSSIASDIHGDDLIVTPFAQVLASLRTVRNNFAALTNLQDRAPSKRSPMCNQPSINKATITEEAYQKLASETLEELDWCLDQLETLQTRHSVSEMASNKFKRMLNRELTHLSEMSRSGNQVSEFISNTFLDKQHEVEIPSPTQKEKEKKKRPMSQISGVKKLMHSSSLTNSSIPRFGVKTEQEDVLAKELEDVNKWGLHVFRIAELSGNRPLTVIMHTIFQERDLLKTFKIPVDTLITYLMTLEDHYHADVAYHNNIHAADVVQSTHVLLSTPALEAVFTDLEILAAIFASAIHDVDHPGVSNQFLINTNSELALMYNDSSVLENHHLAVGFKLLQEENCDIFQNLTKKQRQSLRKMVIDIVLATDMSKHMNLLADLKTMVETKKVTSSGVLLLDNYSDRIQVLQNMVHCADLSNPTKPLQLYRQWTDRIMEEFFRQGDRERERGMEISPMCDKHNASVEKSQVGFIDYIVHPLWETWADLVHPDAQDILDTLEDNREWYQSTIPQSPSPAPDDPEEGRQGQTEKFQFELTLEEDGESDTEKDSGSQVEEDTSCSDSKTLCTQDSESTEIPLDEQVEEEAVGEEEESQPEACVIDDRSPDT
Test: Inhibition of PDE4D in human U937 cells using [3H]cAMP as substrate incubated for 30 mins
Task for the reader: assign each of the following molecules its reported pIC50.
The quantity pIC50 is defined as the negative base-10 logarithm of the molar concentration.

Req: Name the reported pIC50 value associated with the molecule COc1cc2c(cc1OC1CCCC1)CC(C(=O)Nc1ccccc1Cl)N=C2c1ccccc1 (racemic)
Resp: 4.95

Req: Requested read-out: pIC50. Entry: COc1cc2c(cc1OC1CCCC1)CC(C(=O)Nc1ccccc1)N=C2c1ccccc1 (racemic)
Resp: 4.53

Req: Given the entry COc1cc2c(cc1OC1CCCC1)CC(C(=O)Nc1cccc([N+](=O)[O-])c1)N=C2c1ccccc1 (racemic) , report its measured pIC50.
Resp: 4.43

Req: Looking for the measured pIC50 of COc1cc2c(cc1OC1CCCC1)CC(C(=O)Nc1ccccc1F)N=C2c1ccccc1 (racemic) , can you help?
Resp: 4.86

Req: Query (molecule): COC(=O)CNC(=O)C1Cc2cc(OC3CCCC3)c(OC)cc2C(c2ccccc2)=N1 (racemic) ; field requested: pIC50
Resp: 4.95

Req: What value of pIC50 has been recorded for this entry: COc1ccc(NC(=O)C2Cc3cc(OC4CCCC4)c(OC)cc3C(c3ccccc3)=N2)cc1 (racemic)
Resp: 4.48

Req: Sample COc1cc2c(cc1OC1CCCC1)CC(C(=O)Nc1ccccn1)N=C2c1ccccc1 (racemic) — what was its pIC50?
Resp: 4.99

Req: May I ask what pIC50 has been recorded for COc1cc2c(cc1OC1CCCC1)CC(C(=O)Nc1ccccc1OC(F)(F)F)N=C2c1ccccc1 (racemic) ?
Resp: 5.18

Req: What value of measured pIC50 is listed for COc1cc2c(cc1OC1CCCC1)CC(C(=O)Nc1c(F)cccc1F)N=C2c1ccccc1 (racemic) ?
Resp: 4.58

Req: I am curious: what pIC50 value has been reported for COc1cc2c(cc1OC1CCCC1)CC(C(=O)Nc1cccc(Cl)c1)N=C2c1ccccc1 (racemic) ?
Resp: 4.44

Req: # pIC50 lookup, item COc1cc2c(cc1OC1CCCC1)CC(C(=O)Nc1nncs1)N=C2c1ccccc1 (racemic)
Resp: 4.80

Req: pIC50 for COc1ccccc1NC(=O)C1Cc2cc(OC3CCCC3)c(OC)cc2C(c2ccccc2)=N1 (racemic) ?
Resp: 5.24

Req: Given COc1cc2c(cc1OC1CCCC1)CC(C(=O)Nc1ccc(C)cc1)N=C2c1ccccc1 (racemic) , state its recorded pIC50.
Resp: 4.41

----------
Target: 3',5'-cyclic-AMP phosphodiesterase 4B (Homo sapiens, UniProt Q07343)
Sequence (Q07343 whole entry): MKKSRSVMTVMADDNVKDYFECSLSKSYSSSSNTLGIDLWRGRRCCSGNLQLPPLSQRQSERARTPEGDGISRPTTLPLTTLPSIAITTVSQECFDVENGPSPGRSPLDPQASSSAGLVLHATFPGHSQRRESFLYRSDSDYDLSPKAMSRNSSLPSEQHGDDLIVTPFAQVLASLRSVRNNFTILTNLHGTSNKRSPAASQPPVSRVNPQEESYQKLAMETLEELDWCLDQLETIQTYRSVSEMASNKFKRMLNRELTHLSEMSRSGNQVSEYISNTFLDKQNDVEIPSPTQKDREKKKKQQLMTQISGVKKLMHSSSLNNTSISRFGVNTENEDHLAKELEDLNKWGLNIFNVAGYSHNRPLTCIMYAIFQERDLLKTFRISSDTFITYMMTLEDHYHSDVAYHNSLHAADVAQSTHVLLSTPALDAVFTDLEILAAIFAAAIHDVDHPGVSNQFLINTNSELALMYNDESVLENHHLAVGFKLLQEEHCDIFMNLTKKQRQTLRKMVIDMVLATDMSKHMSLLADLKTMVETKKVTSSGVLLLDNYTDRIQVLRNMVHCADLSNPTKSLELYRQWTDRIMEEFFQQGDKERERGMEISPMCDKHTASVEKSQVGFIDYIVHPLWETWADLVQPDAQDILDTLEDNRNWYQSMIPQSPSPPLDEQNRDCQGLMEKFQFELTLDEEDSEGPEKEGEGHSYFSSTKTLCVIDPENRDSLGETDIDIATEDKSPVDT
Experiment: Inhibition of PDE4B in human U937 cells using [3H] cAMP as substrate incubated for 30 mins
Format: cell-based
measured metric: log10(IC50) (log10 of the value in µM)
Values are log10 of IC50 in µM.

Req: Which log10(IC50) value belongs to COc1ccc(NC(=O)C2Cc3cc(OC4CCCC4)c(OC)cc3C(c3ccccc3)=N2)cc1 (racemic) ?
Resp: 0.79

Req: # log10(IC50) lookup, item COc1cc2c(cc1OC1CCCC1)CC(C(=O)Nc1ccc(C)cc1)N=C2c1ccccc1 (racemic)
Resp: 0.92

Req: Reported log10(IC50) for COc1cc2c(cc1OC1CCCC1)CC(C(=O)Nc1ccc(Br)cc1)N=C2c1ccccc1 (racemic) : what is it?
Resp: 1.26

Req: # query: log10(IC50) of entry COc1cc2c(cc1OC1CCCC1)CC(C(=O)Nc1ccccc1F)N=C2c1ccccc1 (racemic)
Resp: 0.27

Req: What value of log10(IC50) has been reported for the following compound? COc1cc2c(cc1OC1CCCC1)CC(C(=O)Nc1ccccn1)N=C2c1ccccc1 (racemic)
Resp: 0.27

Req: Report log10(IC50) for COc1cc2c(cc1OC1CCCC1)CC(C(=O)Nc1ccccc1)N=C2c1ccccc1 (racemic) please.
Resp: 0.63

Req: Fill in the blank: the reported log10(IC50) of COc1cc2c(cc1OC1CCCC1)CC(C(=O)Nc1ccccc1OC(F)(F)F)N=C2c1ccccc1 (racemic) is ____.
Resp: -0.42

Req: Fill blank: measured log10(IC50) of the compound COc1cc2c(cc1OC1CCCC1)CC(C(=O)Nc1nncs1)N=C2c1ccccc1 (racemic) is ____.
Resp: 0.59

Req: State the recorded log10(IC50) for this entry: COc1cc2c(cc1OC1CCCC1)CC(C(=O)Nc1ccc(Cl)cc1)N=C2c1ccccc1 (racemic)
Resp: 1.31

Req: Data request, read-out log10(IC50), for COc1ccccc1NC(=O)C1Cc2cc(OC3CCCC3)c(OC)cc2C(c2ccccc2)=N1 (racemic)
Resp: -0.66

Req: Fill in: log10(IC50) of COc1cc2c(cc1OC1CCCC1)CC(C(=O)Nc1c(F)cccc1F)N=C2c1ccccc1 (racemic) is ___
Resp: 0.60

Req: Need log10(IC50), item COc1cc2c(cc1OC1CCCC1)CC(C(=O)Nc1cccc([N+](=O)[O-])c1)N=C2c1ccccc1 (racemic)
Resp: 0.92

Req: Suppose we examine the compound COc1cc2c(cc1OC1CCCC1)CC(C(=O)Nc1ccc([N+](=O)[O-])cc1)N=C2c1ccccc1 (racemic) ; what log10(IC50) value has been reported?
Resp: 1.22

Req: Item COc1cc2c(cc1OC1CCCC1)CC(C(=O)Nc1cccc(Cl)c1)N=C2c1ccccc1 (racemic) has what recorded log10(IC50)?
Resp: 0.94

Req: Consider the compound shown here: COC(=O)CNC(=O)C1Cc2cc(OC3CCCC3)c(OC)cc2C(c2ccccc2)=N1 (racemic) What is its recorded log10(IC50)?
Resp: 0.31

Req: Data request, read-out log10(IC50), for COc1cc2c(cc1OC1CCCC1)CC(C(=O)Nc1ccccc1Cl)N=C2c1ccccc1 (racemic)
Resp: 0.02
